Test system: HSC-39 (Gastric Carcinoma)
Assay: combination Emax (second highest fraction inhibited in the dose matrix, 72 h); higher = more inhibition; extreme values may be limits of the assay
Outcome Measure: combination Emax
Number only, no unit.

[ask] Look up combination Emax of Cc1c2c(nn1C)CSCc1cc(n(C)n1)CSc1cc(c3ccccc3c1)OCCCc1c(C(=O)O)n(C)c3c-2c(Cl)ccc13 [AZD5991] + CN(C)CCCOc1ccc(-c2ccc3ncc4c(c3c2)n(C2CCOCC2)c(=O)n4C)cn1 [AZD0156] (first compound max 1 µM, 7x7, partner max 1 µM) and report it.
[reply] 1

[ask] Look up combination Emax of CC(=O)c1c(C)c2cnc(Nc3ccc(N4CCNCC4)cn3)nc2n(C2CCCC2)c1=O [Palbociclib] + Cc1c2c(nn1C)CSCc1cc(n(C)n1)CSc1cc(c3ccccc3c1)OCCCc1c(C(=O)O)n(C)c3c-2c(Cl)ccc13 [AZD5991] (first compound max 10 µM, 7x7, partner max 1 µM) and report it.
[reply] 0.995

[ask] Look up combination Emax of CN(CCO)CC[C@H](CSc1ccccc1)Nc1ccc(S(=O)(=O)NC(=O)c2ccc(N3CCC([C@@H](O)c4ccccc4-c4ccc(Cl)cc4)CC3)cc2)cc1S(=O)(=O)C(F)(F)F [AZD4320] + CS(=O)(=O)CCNCc1ccc(-c2ccc3ncnc(Nc4ccc(OCc5cccc(F)c5)c(Cl)c4)c3c2)o1 [Lapatinib] (first compound max 1 µM, 7x7, partner max 10 µM) and report it.
[reply] 0.985

[ask] Look up combination Emax of NC1(C(=O)N[C@@H](CCO)c2ccc(Cl)cc2)CCN(c2ncnc3[nH]ccc23)CC1 [Capivasertib] + C[C@@H]1COCCN1C2=NC(=NC(=C2)C3(CC3)[S@](=N)(=O)C)C4=C5C=CNC5=NC=C4 [AZD6738] (first compound max 10 µM, 7x7, partner max 10 µM) and report it.
[reply] 1

[ask] Look up combination Emax of C[C@@H](c1ccc2nccn2c1)n1nnc2ncc(-c3cnn(C)c3)nc21 [Savolitinib] + Cc1c2c(nn1C)CSCc1cc(n(C)n1)CSc1cc(c3ccccc3c1)OCCCc1c(C(=O)O)n(C)c3c-2c(Cl)ccc13 [AZD5991] (first compound max 1 µM, 7x7, partner max 1 µM) and report it.
[reply] 0.99

[ask] Look up combination Emax of COc1nnc2ccc(N3CCC(c4ccc(OCCN5CCN(C)C(=O)[C@H]5C)cc4)CC3)nn12 [AZD5153] + Cn1cnc2c(F)c(Nc3ccc(Br)cc3Cl)c(C(=O)NOCCO)cc21 [Selumetinib] (first compound max 1 µM, 7x7, partner max 10 µM) and report it.
[reply] 0.76

[ask] Look up combination Emax of CS(=O)(=O)CCNCc1ccc(-c2ccc3ncnc(Nc4ccc(OCc5cccc(F)c5)c(Cl)c4)c3c2)o1 [Lapatinib] + C[C@@H](Oc1cc(-c2cnn(C3CCNCC3)c2)cnc1N)c1c(Cl)ccc(F)c1Cl [Crizotinib] (first compound max 10 µM, 7x7, partner max 10 µM) and report it.
[reply] 0.981

[ask] Look up combination Emax of CC(=O)c1c(C)c2cnc(Nc3ccc(N4CCNCC4)cn3)nc2n(C2CCCC2)c1=O [Palbociclib] + Cn1cnc2c(F)c(Nc3ccc(Br)cc3Cl)c(C(=O)NOCCO)cc21 [Selumetinib] (first compound max 10 µM, 7x7, partner max 10 µM) and report it.
[reply] 0.667

[ask] Look up combination Emax of Cc1c2c(nn1C)CSCc1cc(n(C)n1)CSc1cc(c3ccccc3c1)OCCCc1c(C(=O)O)n(C)c3c-2c(Cl)ccc13 [AZD5991] + C[C@@H](Nc1cc(F)cc(F)c1)c1cc(C(=O)N(C)C)cc2c(=O)cc(N3CCOCC3)oc12 [AZD8186] (first compound max 1 µM, 7x7, partner max 3 µM) and report it.
[reply] 1

[ask] Look up combination Emax of C=CCn1c(=O)c2cnc(Nc3ccc(N4CCN(C)CC4)cc3)nc2n1-c1cccc(C(C)(C)O)n1 [AZD1775] + Nc1ccn([C@@H]2O[C@H](CO)[C@@H](O)C2(F)F)c(=O)n1 [Gemcitabine] (first compound max 1 µM, partner max 0.3 µM) and report it.
[reply] 1

[ask] Look up combination Emax of Cc1c2c(nn1C)CSCc1cc(n(C)n1)CSc1cc(c3ccccc3c1)OCCCc1c(C(=O)O)n(C)c3c-2c(Cl)ccc13 [AZD5991] + CC1(C)CCC(CN2CCN(c3ccc(C(=O)NS(=O)(=O)c4ccc(NCC5CCOCC5)c([N+](=O)[O-])c4)c(Oc4cnc5[nH]ccc5c4)c3)CC2)=C(c2ccc(Cl)cc2)C1 [Venetoclax] (first compound max 1 µM, 7x7, partner max 1 µM) and report it.
[reply] 1

[ask] Look up combination Emax of NC1(C(=O)N[C@@H](CCO)c2ccc(Cl)cc2)CCN(c2ncnc3[nH]ccc23)CC1 [Capivasertib] + COc1nnc2ccc(N3CCC(c4ccc(OCCN5CCN(C)C(=O)[C@H]5C)cc4)CC3)nn12 [AZD5153] (first compound max 10 µM, 7x7, partner max 1 µM) and report it.
[reply] 0.916

[ask] Look up combination Emax of CCc1c2c(nc3ccc(O)cc13)-c1cc3c(c(=O)n1C2)COC(=O)[C@]3(O)CC [SN-38] + O=C(c1cc(Cc2n[nH]c(=O)c3ccccc23)ccc1F)N1CCN(C(=O)C2CC2)CC1 [Olaparib] (first compound max 0.3 µM, 7x7, partner max 10 µM) and report it.
[reply] 0.887

###

System: MKN45 (Gastric Carcinoma)
Test: Bliss excess, mean over the matrix (fraction); higher = more synergy
Outcome Measure: Bliss excess
Number only, no unit.

[ask] Provide measured Bliss excess on MKN45 (Gastric Carcinoma) for C[C@@H](Oc1cc(-c2cnn(C3CCNCC3)c2)cnc1N)c1c(Cl)ccc(F)c1Cl [Crizotinib] + Cn1cnc2c(F)c(Nc3ccc(Br)cc3Cl)c(C(=O)NOCCO)cc21 [Selumetinib] (first compound max 10 µM, 7x7, partner max 10 µM) please.
[reply] -0.0192

[ask] Provide measured Bliss excess on MKN45 (Gastric Carcinoma) for O=C(c1cc(Cc2n[nH]c(=O)c3ccccc23)ccc1F)N1CCN(C(=O)C2CC2)CC1 [Olaparib] + COc1nnc2ccc(N3CCC(c4ccc(OCCN5CCN(C)C(=O)[C@H]5C)cc4)CC3)nn12 [AZD5153] (first compound max 10 µM, 7x7, partner max 1 µM) please.
[reply] -0.0794

###

System: OVMIU (Ovarian Carcinoma)
Experiment: Bliss excess, mean over the matrix (fraction); higher = more synergy
For each entry below, report its Bliss excess value.
Number only, no unit.

[ask] Provide measured Bliss excess on OVMIU (Ovarian Carcinoma) for COc1nnc2ccc(N3CCC(c4ccc(OCCN5CCN(C)C(=O)[C@H]5C)cc4)CC3)nn12 [AZD5153] + CC1(C)CCC(CN2CCN(c3ccc(C(=O)NS(=O)(=O)c4ccc(NCC5CCOCC5)c([N+](=O)[O-])c4)c(Oc4cnc5[nH]ccc5c4)c3)CC2)=C(c2ccc(Cl)cc2)C1 [Venetoclax] (first compound max 1 µM, 7x7, partner max 1 µM) please.
[reply] -0.0254

[ask] Provide measured Bliss excess on OVMIU (Ovarian Carcinoma) for Cc1c2c(nn1C)CSCc1cc(n(C)n1)CSc1cc(c3ccccc3c1)OCCCc1c(C(=O)O)n(C)c3c-2c(Cl)ccc13 [AZD5991] + C[C@@H](Nc1cc(F)cc(F)c1)c1cc(C(=O)N(C)C)cc2c(=O)cc(N3CCOCC3)oc12 [AZD8186] (first compound max 1 µM, 7x7, partner max 3 µM) please.
[reply] -0.0181

[ask] Provide measured Bliss excess on OVMIU (Ovarian Carcinoma) for O=C(c1cc(Cc2n[nH]c(=O)c3ccccc23)ccc1F)N1CCN(C(=O)C2CC2)CC1 [Olaparib] + Cc1c2c(nn1C)CSCc1cc(n(C)n1)CSc1cc(c3ccccc3c1)OCCCc1c(C(=O)O)n(C)c3c-2c(Cl)ccc13 [AZD5991] (first compound max 10 µM, 7x7, partner max 1 µM) please.
[reply] -0.0646

###

For each entry below, report its Bliss excess value.
Test system: PANC-03-27 (Pancreatic Carcinoma)
Assay: Bliss excess, mean over the matrix (fraction); higher = more synergy

[ask] Look up Bliss excess of COc1cccc(OCCCN)c1-c1cc(Nc2cnc(C#N)cn2)n[nH]1 [Prexasertib] + O=C(c1cc(Cc2n[nH]c(=O)c3ccccc23)ccc1F)N1CCN(C(=O)C2CC2)CC1 [Olaparib] (first compound max 1 µM, 7x7, partner max 10 µM) and report it.
[reply] -0.0102

[ask] Look up Bliss excess of COc1nnc2ccc(N3CCC(c4ccc(OCCN5CCN(C)C(=O)[C@H]5C)cc4)CC3)nn12 [AZD5153] + Cc1c2c(nn1C)CSCc1cc(n(C)n1)CSc1cc(c3ccccc3c1)OCCCc1c(C(=O)O)n(C)c3c-2c(Cl)ccc13 [AZD5991] (first compound max 1 µM, 7x7, partner max 1 µM) and report it.
[reply] -0.0183

[ask] Look up Bliss excess of CN(CCO)CC[C@H](CSc1ccccc1)Nc1ccc(S(=O)(=O)NC(=O)c2ccc(N3CCC([C@@H](O)c4ccccc4-c4ccc(Cl)cc4)CC3)cc2)cc1S(=O)(=O)C(F)(F)F [AZD4320] + Cn1cnc2c(F)c(Nc3ccc(Br)cc3Cl)c(C(=O)NOCCO)cc21 [Selumetinib] (first compound max 1 µM, 7x7, partner max 3 µM) and report it.
[reply] 0.0406

[ask] Look up Bliss excess of COc1cc2c(cc1OCCCCCOc1cc3c(cc1OC)C(=O)N1C=C(C)C[C@H]1C=N3)N=C[C@@H]1CC(C)=CN1C2=O [SG3199] + O=C(c1cc(Cc2n[nH]c(=O)c3ccccc23)ccc1F)N1CCN(C(=O)C2CC2)CC1 [Olaparib] (first compound max 0.001 µM, 7x7, partner max 10 µM) and report it.
[reply] -0.062

[ask] Look up Bliss excess of CN(CCO)CC[C@H](CSc1ccccc1)Nc1ccc(S(=O)(=O)NC(=O)c2ccc(N3CCC([C@@H](O)c4ccccc4-c4ccc(Cl)cc4)CC3)cc2)cc1S(=O)(=O)C(F)(F)F [AZD4320] + CCN(CCO)CCCOc1ccc2c(Nc3cc(CC(=O)Nc4cccc(F)c4)[nH]n3)ncnc2c1 [AZD2811] (first compound max 1 µM, 7x7, partner max 1 µM) and report it.
[reply] 0.0197

[ask] Look up Bliss excess of COc1cccc(OCCCN)c1-c1cc(Nc2cnc(C#N)cn2)n[nH]1 [Prexasertib] + Cc1cc2ncnn2cc1Nc1ncc2c(n1)n(C1CCOCC1)c(=O)n2C [AZD7648] (first compound max 1 µM, 7x7, partner max 10 µM) and report it.
[reply] -0.0606

[ask] Look up Bliss excess of CC1(C)CCC(CN2CCN(c3ccc(C(=O)NS(=O)(=O)c4ccc(NCC5CCOCC5)c([N+](=O)[O-])c4)c(Oc4cnc5[nH]ccc5c4)c3)CC2)=C(c2ccc(Cl)cc2)C1 [Venetoclax] + COc1cc(Nc2ncc3c(n2)-c2ccc(Cl)cc2C(c2c(F)cccc2OC)=NC3)ccc1C(=O)O [Alisertib] (first compound max 1 µM, 7x7, partner max 10 µM) and report it.
[reply] -0.0236

[ask] Look up Bliss excess of CC(=O)c1c(C)c2cnc(Nc3ccc(N4CCNCC4)cn3)nc2n(C2CCCC2)c1=O [Palbociclib] + Cc1c2c(nn1C)CSCc1cc(n(C)n1)CSc1cc(c3ccccc3c1)OCCCc1c(C(=O)O)n(C)c3c-2c(Cl)ccc13 [AZD5991] (first compound max 10 µM, 7x7, partner max 1 µM) and report it.
[reply] -0.0242

[ask] Look up Bliss excess of CN(CCO)CC[C@H](CSc1ccccc1)Nc1ccc(S(=O)(=O)NC(=O)c2ccc(N3CCC([C@@H](O)c4ccccc4-c4ccc(Cl)cc4)CC3)cc2)cc1S(=O)(=O)C(F)(F)F [AZD4320] + CS(=O)(=O)CCNCc1ccc(-c2ccc3ncnc(Nc4ccc(OCc5cccc(F)c5)c(Cl)c4)c3c2)o1 [Lapatinib] (first compound max 1 µM, 7x7, partner max 10 µM) and report it.
[reply] 0.023

[ask] Look up Bliss excess of CN(CCO)CC[C@H](CSc1ccccc1)Nc1ccc(S(=O)(=O)NC(=O)c2ccc(N3CCC([C@@H](O)c4ccccc4-c4ccc(Cl)cc4)CC3)cc2)cc1S(=O)(=O)C(F)(F)F [AZD4320] + CC(=O)O[C@H]1C(=O)[C@@]2(C)[C@H]([C@H](OC(=O)c3ccccc3)[C@]3(O)C[C@H](OC(=O)[C@H](O)[C@@H](NC(=O)c4ccccc4)c4ccccc4)C(C)=C1C3(C)C)[C@]1(OC(C)=O)CO[C@@H]1C[C@@H]2O [Paclitaxel] (first compound max 1 µM, 7x7, partner max 3 µM) and report it.
[reply] 0.0599

[ask] Look up Bliss excess of Cc1cc2ncnn2cc1Nc1ncc2c(n1)n(C1CCOCC1)c(=O)n2C [AZD7648] + O=C(c1cc(Cc2n[nH]c(=O)c3ccccc23)ccc1F)N1CCN(C(=O)C2CC2)CC1 [Olaparib] (first compound max 10 µM, 7x7, partner max 10 µM) and report it.
[reply] -0.0149

[ask] Look up Bliss excess of CN(CCO)CC[C@H](CSc1ccccc1)Nc1ccc(S(=O)(=O)NC(=O)c2ccc(N3CCC([C@@H](O)c4ccccc4-c4ccc(Cl)cc4)CC3)cc2)cc1S(=O)(=O)C(F)(F)F [AZD4320] + Cc1cc2ncnn2cc1Nc1ncc2c(n1)n(C1CCOCC1)c(=O)n2C [AZD7648] (first compound max 1 µM, 7x7, partner max 10 µM) and report it.
[reply] -0.061
